experiment: Antagonist activity against CRTh2 receptor in human eosinophils assessed as cell shape change
value-type: IC50 (nM)
Give bare numbers, in nM.

Lookup: Bench note: what IC50 did `N#C/C(=C\c1cn(CC(=O)O)c2ccccc12)C(=O)N1CCCc2ccccc21` show?
Found: 160
